Listing of entries alongside the reported PBM binding z-score.
Test system: RARb homodimer (NR concentration 270 nM)
Run Description: PBM binding z-score (relative to random genomic background probes); higher = stronger binding; sequences stand for … in GC…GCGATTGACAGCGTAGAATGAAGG
Readout Label: PBM binding z-score

>>> measured_number("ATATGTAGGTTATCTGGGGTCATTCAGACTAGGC")
3.97
>>> measured_number("GCTGCTAGGTCAACTGATGGTCACCTAAAGCTCG")
3.93
>>> measured_number("ACTCGGTGGACAAAGGTCAGAGCTACGCCAGTGA")
4.06

====

Tested on: RARb:RXRa (NR concentration 270 nM, RXRa partner concentration 90 nM)
Run Description: PBM binding z-score (relative to random genomic background probes); higher = stronger binding; sequences stand for … in GC…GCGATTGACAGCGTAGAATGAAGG
Readout Label: PBM binding z-score

>>> measured_number("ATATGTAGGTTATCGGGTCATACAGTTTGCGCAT")
2.75
>>> measured_number("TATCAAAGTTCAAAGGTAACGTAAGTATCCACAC")
5.07
>>> measured_number("ATCGAAAGGTCTAAGGTGAGTATACCCACCCGAA")
1.53
>>> measured_number("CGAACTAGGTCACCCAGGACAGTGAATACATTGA")
4.25
>>> measured_number("CTATGTAGGTCAAGGGGGTCATTCAGTTTGAAAG")
5.06
>>> measured_number("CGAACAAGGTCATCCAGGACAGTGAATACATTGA")
5.19
>>> measured_number("AGAATGAGGTTAAGTTCAGGGAAACAGAATACAT")
3.17
>>> measured_number("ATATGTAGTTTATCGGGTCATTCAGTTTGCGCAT")
2.26
>>> measured_number("TCTGCTAGGTCAACGATGGTCAGTTAATCTGCTA")
4.04
>>> measured_number("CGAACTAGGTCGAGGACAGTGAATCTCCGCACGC")
1.64
>>> measured_number("CCTTACGGGTCACGAGGTCATAGCACGACGAGCG")
5.23
>>> measured_number("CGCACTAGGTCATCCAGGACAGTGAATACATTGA")
3.88
>>> measured_number("CAAACTAGGTCACAGTGGTCAAAGTCCGTGCGTA")
4.08
>>> measured_number("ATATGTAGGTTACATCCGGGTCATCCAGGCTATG")
2.3
>>> measured_number("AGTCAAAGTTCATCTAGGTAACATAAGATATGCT")
4.94
>>> measured_number("ACTTAAGGGTCAACGAGGTTATAGCACGCGTATA")
5.29
>>> measured_number("ACTAGTTGGTCAGCTGAGGTCACACCCAATTCGG")
3.57
>>> measured_number("TATACGGGGTCAAAGGCCAGAGTACGAATGTCGA")
5.29
>>> measured_number("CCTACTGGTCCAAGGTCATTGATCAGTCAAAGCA")
3.33
>>> measured_number("CGTCCAAGGTCATAGGGGGTCAGTGAAGACAGAT")
5.56
>>> measured_number("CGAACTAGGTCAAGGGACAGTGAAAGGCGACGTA")
3.92
>>> measured_number("ACTTACGGGTCAACGAGGTCATAGCACGCGTATA")
4.82
>>> measured_number("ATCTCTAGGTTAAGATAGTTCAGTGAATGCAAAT")
2.01
